Test system A. thaliana PRORP1 (Arabidopsis thaliana), pIC50 listed for each of the compounds.
// pIC50: -log10(molar conc.)

* CC(C)=CCC[C@]1(C)C=Cc2c(O)c3c(c(CC=C(C)C)c2O1)O[C@]12C(=C[C@@H]4C[C@H]1C(C)(C)O[C@@]2(C/C=C(/C)C(=O)O)C4=O)C3=O [gambogic acid] | 6.00

# ---- query compound ----
Prompt line: Suppose we examine the compound O=C1C=CC(=O)c2c(O)cccc21 [juglone, 5-hydroxy-1,4-naphthalenedione] ; what pIC50 value has been reported?
Response line: 5.68

----------
Target: UniProt Q66GI4
Assay: Time-dependent inactivation of PRORP1 by juglone (varying preincubation time)
result_type: pKi
// pKi: -log10(molar conc.)

Prompt line: Suppose we examine the molecule O=C1C=CC(=O)c2c(O)cccc21 [juglone, 5-hydroxy-1,4-naphthalenedione] ; what pKi value has been reported?
Response line: 4.90

----------
Target: A. thaliana PRORP1 (Arabidopsis thaliana, UniProt Q66GI4)
Construct: made in house
Sequence (Q66GI4 77-572): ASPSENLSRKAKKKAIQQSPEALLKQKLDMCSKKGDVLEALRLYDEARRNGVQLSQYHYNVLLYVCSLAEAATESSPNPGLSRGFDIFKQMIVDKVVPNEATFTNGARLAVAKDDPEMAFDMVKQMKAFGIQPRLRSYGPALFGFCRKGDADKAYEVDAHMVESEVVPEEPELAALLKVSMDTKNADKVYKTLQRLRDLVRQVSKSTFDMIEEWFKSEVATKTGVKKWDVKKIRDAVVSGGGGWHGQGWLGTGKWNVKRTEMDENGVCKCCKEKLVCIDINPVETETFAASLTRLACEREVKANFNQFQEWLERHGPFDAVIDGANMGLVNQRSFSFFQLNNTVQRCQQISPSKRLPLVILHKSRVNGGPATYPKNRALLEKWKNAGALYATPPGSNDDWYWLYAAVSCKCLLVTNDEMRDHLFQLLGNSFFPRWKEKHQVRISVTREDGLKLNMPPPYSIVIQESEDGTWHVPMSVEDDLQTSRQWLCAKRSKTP
Assay: FP cleavage assay, PRORP1 dose response
Assay type: biochemical
Details: 6.25 μM of inhibitor; FP cleavage assay; read-out: PRORP1 Activity (%)
Kindly return condition met if reported activity at 6.25 µM is no lower than 30%; return condition not met if it is lower.

- CN(C)c1ccc(C(=C2C=CC(=[N+](C)C)C=C2)c2ccc(N(C)C)cc2)cc1 [gentian violet]: condition not met
- O=C1C=CC(=O)c2c(O)cccc21 [juglone, 5-hydroxy-1,4-naphthalenedione]: condition not met
- Cc1cc(-c2ccc(/N=N/c3ccc4c(S(=O)(=O)O)cc(S(=O)(=O)O)c(N)c4c3O)c(C)c2)ccc1/N=N/c1ccc2c(S(=O)(=O)O)cc(S(=O)(=O)O)c(N)c2c1O [evans blue]: condition not met
- CC1=CC(=O)c2c(O)cccc2C1=O [plumbagin]: condition not met

Prompt line: Is it the case that O=C(O)C1=CC(=C(c2ccc(O)c(C(=O)O)c2)c2ccc(O)c(C(=O)O)c2)C=CC1=O [aurintricarboxylic acid] has activity at 6.25 µM reaching or exceeding 30%?
Response line: condition met

Prompt line: Check CC(=O)O[C@@H]1C[C@@]2(C)[C@H](c3ccoc3)C[C@H]3O[C@]32[C@]2(C)C(=O)C(O)=C3C(C)(C)C(=O)C=C[C@]3(C)[C@@H]12 [anthothecol] too.
Response line: condition not met

Prompt line: Check O=C1C(Cl)=C(Cl)C(=O)C(Cl)=C1Cl [chloranil] too.
Response line: condition met

----------
Target: PRORP1 (Arabidopsis thaliana, UniProt Q66GI4)
Construct: made in house
Sequence (Q66GI4 77-572): as the sequence (Q66GI4 77-572) above
Assay: Mode of inhibition of gambogic acid, PRORP1 activity at varying pre-tRNA and inhibitor
Assay type: biochemical, A. thaliana
Settings: uncompetitive model; gambogic acid 0-1.6 μM; read-out: inhibition constant (KI), fit of Equation 3 to kcat,app
result_type: Ki (nM)
The reply should contain only the number, in nM.

Prompt line: Suppose we examine the compound CC(C)=CCC[C@]1(C)C=Cc2c(O)c3c(c(CC=C(C)C)c2O1)O[C@]12C(=C[C@@H]4C[C@H]1C(C)(C)O[C@@]2(C/C=C(/C)C(=O)O)C4=O)C3=O [gambogic acid] ; what Ki value has been reported?
Response line: 1080

----------
Target: PRORP1 C373A (Arabidopsis thaliana, UniProt Q66GI4, C373A)
Sequence (Q66GI4 77-572 C373A): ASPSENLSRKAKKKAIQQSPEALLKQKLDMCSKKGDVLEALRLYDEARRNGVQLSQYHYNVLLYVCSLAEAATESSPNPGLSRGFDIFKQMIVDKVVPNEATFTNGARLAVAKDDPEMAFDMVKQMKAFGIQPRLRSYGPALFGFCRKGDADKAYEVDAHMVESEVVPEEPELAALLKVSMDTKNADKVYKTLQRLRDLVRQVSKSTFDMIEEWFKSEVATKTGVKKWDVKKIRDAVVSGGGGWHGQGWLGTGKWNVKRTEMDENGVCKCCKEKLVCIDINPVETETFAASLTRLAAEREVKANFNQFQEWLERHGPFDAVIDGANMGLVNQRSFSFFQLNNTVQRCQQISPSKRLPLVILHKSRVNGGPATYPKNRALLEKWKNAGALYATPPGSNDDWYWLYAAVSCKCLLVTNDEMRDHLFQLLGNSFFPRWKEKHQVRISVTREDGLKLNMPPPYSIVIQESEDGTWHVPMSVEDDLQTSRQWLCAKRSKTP
Assay: Time-dependent inactivation by juglone, PRORP1 C373A
pKi: −log10 of the molar value.
result_type: pKi

Prompt line: Suppose we examine the molecule O=C1C=CC(=O)c2c(O)cccc21 [juglone, 5-hydroxy-1,4-naphthalenedione] ; what pKi value has been reported?
Response line: < 5.00

----------
Target: human MRPP1/2/3 (Homo sapiens, UniProt O15091)
Construct: N-terminal truncation (residues 46–583, Δ45MRPP3); His6 (N, cleaved yes)
Sequence (O15091 46-583): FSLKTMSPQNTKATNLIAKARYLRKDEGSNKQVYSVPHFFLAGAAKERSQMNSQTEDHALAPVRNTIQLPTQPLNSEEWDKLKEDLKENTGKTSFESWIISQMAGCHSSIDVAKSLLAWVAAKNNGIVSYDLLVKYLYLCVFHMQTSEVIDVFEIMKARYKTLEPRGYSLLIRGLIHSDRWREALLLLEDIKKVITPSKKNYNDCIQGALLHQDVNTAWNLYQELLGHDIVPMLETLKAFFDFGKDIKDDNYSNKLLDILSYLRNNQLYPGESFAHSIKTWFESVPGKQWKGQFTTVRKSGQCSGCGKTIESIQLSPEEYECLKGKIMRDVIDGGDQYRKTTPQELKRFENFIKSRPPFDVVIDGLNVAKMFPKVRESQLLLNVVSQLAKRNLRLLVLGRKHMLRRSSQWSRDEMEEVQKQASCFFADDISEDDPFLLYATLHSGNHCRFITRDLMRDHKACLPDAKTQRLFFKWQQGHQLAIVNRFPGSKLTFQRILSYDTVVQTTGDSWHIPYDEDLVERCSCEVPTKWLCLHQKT
Experiment: Human mitochondrial RNase P (MRPP1/2/3) activity assay
Conditions: 30 min preincubation; 50 nM MRPP3, 500 nM MRPP1/2, 500 nM pre-tRNA, 37 °C; apparent IC50 for juglone
result_type: IC50 (nM)
The reply should contain only the number, in nM.

* O=C1C=CC(=O)c2c(O)cccc21 [juglone, 5-hydroxy-1,4-naphthalenedione] | 1800

# ---- query compound ----
Prompt line: Suppose we examine the compound `CC(C)=CCC[C@]1(C)C=Cc2c(O)c3c(c(CC=C(C)C)c2O1)O[C@]12C(=C[C@@H]4C[C@H]1C(C)(C)O[C@@]2(C/C=C(/C)C(=O)O)C4=O)C3=O` ; what IC50 value has been reported?
Response line: 260

----------
Molecular target: B. subtilis RNase P (Bacillus subtilis, UniProt P25814)
Construct: made in house
Sequence (P25814 whole entry): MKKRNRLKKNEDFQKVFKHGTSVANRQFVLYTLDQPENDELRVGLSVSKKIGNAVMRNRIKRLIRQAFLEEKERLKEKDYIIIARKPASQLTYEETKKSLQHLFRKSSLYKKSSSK
Test: B. subtilis RNase P activity assay (FP, real-time)
Assay type: biochemical
result_type: pIC50
// pIC50: -log10(molar conc.)

Prompt line: Suppose we examine the molecule `CC(C)=CCC[C@]1(C)C=Cc2c(O)c3c(c(CC=C(C)C)c2O1)O[C@]12C(=C[C@@H]4C[C@H]1C(C)(C)O[C@@]2(C/C=C(/C)C(=O)O)C4=O)C3=O` ; what pIC50 value has been reported?
Response line: 4.30

----------
Biological target: PRORP1 (Arabidopsis thaliana)
Construct: made in house
Assay: Mode of inhibition of gambogic acid, PRORP1 activity at varying pre-tRNA and inhibitor
Type: biochemical, A. thaliana
Conditions: global fit; read-out: KI, global fit analysis (Equations 2, 3, 4)
result_type: pKi
// pKi: -log10(molar conc.)

Prompt line: Suppose we examine the molecule CC(C)=CCC[C@]1(C)C=Cc2c(O)c3c(c(CC=C(C)C)c2O1)O[C@]12C(=C[C@@H]4C[C@H]1C(C)(C)O[C@@]2(C/C=C(/C)C(=O)O)C4=O)C3=O [gambogic acid] ; what pKi value has been reported?
Response line: 5.96

Data origin, for the record: paper PMC9731865
